# test system: androgen receptor (Rattus norvegicus, UniProt P15207)
# Construct: on receptors in cystosol from animal target organs; from tissue; host or cells: prostate cytosol of castrated rat
# Sequence (P15207 whole entry S389L): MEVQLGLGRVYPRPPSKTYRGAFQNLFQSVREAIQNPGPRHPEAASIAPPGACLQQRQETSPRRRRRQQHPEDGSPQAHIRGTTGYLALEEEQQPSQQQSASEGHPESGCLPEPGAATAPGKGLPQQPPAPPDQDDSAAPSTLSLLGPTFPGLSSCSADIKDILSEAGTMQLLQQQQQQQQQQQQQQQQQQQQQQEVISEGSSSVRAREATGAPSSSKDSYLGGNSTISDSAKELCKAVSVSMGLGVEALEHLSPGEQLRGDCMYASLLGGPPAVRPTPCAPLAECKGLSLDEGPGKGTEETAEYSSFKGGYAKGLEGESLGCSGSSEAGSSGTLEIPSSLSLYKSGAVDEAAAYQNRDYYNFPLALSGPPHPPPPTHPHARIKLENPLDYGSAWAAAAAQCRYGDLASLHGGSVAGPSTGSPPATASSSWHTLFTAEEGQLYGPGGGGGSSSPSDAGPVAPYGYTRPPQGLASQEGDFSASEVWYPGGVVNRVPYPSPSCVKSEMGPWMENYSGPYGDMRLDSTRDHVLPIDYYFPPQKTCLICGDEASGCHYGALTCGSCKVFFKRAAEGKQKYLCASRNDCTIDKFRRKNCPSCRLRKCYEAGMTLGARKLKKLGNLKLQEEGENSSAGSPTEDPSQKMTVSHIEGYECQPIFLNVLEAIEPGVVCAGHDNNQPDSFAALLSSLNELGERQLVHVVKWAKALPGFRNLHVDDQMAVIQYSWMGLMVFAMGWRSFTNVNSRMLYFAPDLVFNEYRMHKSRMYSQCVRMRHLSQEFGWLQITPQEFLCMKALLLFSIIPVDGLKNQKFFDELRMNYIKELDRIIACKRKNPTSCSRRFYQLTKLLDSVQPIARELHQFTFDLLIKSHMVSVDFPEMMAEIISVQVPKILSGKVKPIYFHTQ
# run description: Measurement of the androgen receptor binding affinity (competitive binding with 3H-Metribolone tracer in prostate cytosol)
# assay conditions: prostate cytosol of the castrated rat; tracer 3H-Metribolone; reference substance DHT = 100%; 0-4° C., 18 hours
Everything with RBA % (relative molar binding affinity) lower than 70% is label 0; everything else, including exactly 70%, is label 1.

compound | test system | group label
C[C@]12CC[C@H]3[C@@H](CCC4=C(C(F)(F)F)C(=O)CC[C@@]43C)[C@@H]1CC=C(Cl)[C@@H]2O | androgen receptor (Rattus norvegicus, UniProt P15207) | label 0
CC1CC2=CC(=O)CCC2C2CCC3(C)C(O)C(Cl)=CCC3C12 (centres unmarked) | androgen receptor (Rattus norvegicus, UniProt P15207) | label 1
CC1CC2=CC(=O)CCC2(C)C2CCC3(C)C(O)C(Cl)=CCC3C12 (centres unmarked) | androgen receptor (Rattus norvegicus, UniProt P15207) | label 0

Moving on to the next compound.
Kindly determine if RBA % (relative molar binding affinity) recorded for C[C@]12CC[C@H]3[C@@H](CCC4=CC(=O)CC[C@@H]43)[C@@H]1CC=C(Cl)[C@@H]2O is above or exactly 70%.
label 1
